Test system: barnyardgrass (Echinochloa crus-galli)
measurement.protocol: Test A postemergence, barnyardgrass
Type: in vivo
experimental.context: 125 g ai/ha, visual injury, 0 to 100 scale (0 no effect, 100 complete control), approximately 10 days
measured.attribute: Plant response rating, Barnyardgrass
Give the figure only, with no unit attached.

Some solved cases for reference:
- molecule: "CN1CC(c2cccc(Oc3ccc(F)cn3)c2)C(C(=O)Nc2cccc(C#N)c2F)C1=O (single isomer, unassigned)"
  Plant response rating, Barnyardgrass: 80
- molecule: "CC1(COc2cccc(C3CNC(=O)C3C(=O)Nc3ccccc3F)c2)COC1 (stereo not drawn)"
  Plant response rating, Barnyardgrass: 10
- molecule: "CN1CC(c2cccc(Oc3ncc(F)cn3)c2)C(C(=O)Nc2cccc(F)c2F)C1=O (single isomer, unassigned)"
  Plant response rating, Barnyardgrass: 100

Look up Plant response rating, Barnyardgrass: CN1CC(c2cccc(Oc3ncc(F)cn3)c2)C(C(=O)Nc2ccccc2F)C1=O (single isomer, unassigned) 90

Look up Plant response rating, Barnyardgrass: O=C1NCC(c2cccc(OCC3OCCO3)c2)C1C(=O)Nc1ccccc1F (stereo not drawn) 0

Look up Plant response rating, Barnyardgrass: C[Si](C)(C)C#Cc1cccc(C2CNC(=O)C2C(=O)Nc2cccc(F)c2F)c1 (stereo not drawn) 0

Look up Plant response rating, Barnyardgrass: O=C1NCC(c2cccc(OCC3OCCO3)c2)C1C(=O)Nc1ccccc1Cl (stereo not drawn) 0

Look up Plant response rating, Barnyardgrass: CN1CC(c2cccc(Oc3ncc(F)cc3F)c2)C(C(=O)Nc2ccc(F)c(F)c2F)C1=O (single isomer, unassigned) 90

Look up Plant response rating, Barnyardgrass: CN1CC(c2cccc(OC(F)(F)C(F)OC(F)(F)F)c2)C(C(=O)Nc2cccc(F)c2F)C1=O (stereo not drawn) 20

Look up Plant response rating, Barnyardgrass: CN1CC(c2cccc(Oc3ccc(F)cc3)c2)C(C(=O)Nc2cccc(F)c2F)C1=O (single isomer, unassigned) 90

Look up Plant response rating, Barnyardgrass: O=C1NCC(c2cccc(OCC3OCCO3)c2)C1C(=O)Nc1cccc(F)c1F (stereo not drawn) 40

Look up Plant response rating, Barnyardgrass: O=C1NCC(c2cccc(Oc3ccc(C(F)(F)F)cn3)c2)C1C(=O)Nc1cccc(F)c1F (single isomer, unassigned) 70

---

Tested on: barnyardgrass (Echinochloa crus-galli)
measurement.protocol: Test A preemergence, barnyardgrass
Type: in vivo
experimental.context: 125 g ai/ha, 0 to 100 scale (0 no effect, 100 complete control)
// assign YES if Plant response rating, Barnyardgrass falls strictly below 60, else NO (ties count as NO)

- compound: "O=C1NCC(c2cccc(Oc3ccccn3)c2)C1C(=O)Nc1ccccc1F (stereo not shown)"
  qualitative.label: "YES"
- compound: "CN1CC(c2cccc(Oc3ncc(F)cn3)c2)C(C(=O)Nc2cccc(F)c2F)C1=O (single isomer, unassigned)"
  qualitative.label: "NO"
- compound: "CN1CC(c2cccc(Oc3ncc(F)cn3)c2)C(C(=O)Nc2ccccc2F)C1=O (single isomer, unassigned)"
  qualitative.label: "NO"

Criterion: Plant response rating, Barnyardgrass strictly below 60. Is it met by O=C1NCC(c2cccc(Oc3ncc(Cl)cn3)c2)C1C(=O)Nc1ccccc1F (stereo not shown) ? YES

Criterion: Plant response rating, Barnyardgrass strictly below 60. Is it met by O=C1NCC(c2cccc(OCC3OCCO3)c2)C1C(=O)Nc1ccccc1F (stereo not shown) ? YES

Criterion: Plant response rating, Barnyardgrass strictly below 60. Is it met by O=C1NCC(c2cccc(COc3ccccc3)c2)C1C(=O)Nc1cccc(F)c1F (stereo not shown) ? YES
